B1: TPR t1 (parent)
chain: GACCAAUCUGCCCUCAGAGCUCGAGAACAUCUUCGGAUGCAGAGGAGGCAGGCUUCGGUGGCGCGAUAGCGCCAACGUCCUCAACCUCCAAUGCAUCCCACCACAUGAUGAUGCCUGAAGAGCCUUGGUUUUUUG

variants of: B1; test: polymerase ribozyme fitness, log enrichment relative to wild type (log ratio); higher = more active; in vitro selection for triplet polymerase activity
We use -3 as the dividing line for polymerase ribozyme fitness (log ratio): on or above the line is condition met, below is condition not met.

Variant Descriptor | Cat
G60A C115A | condition met
C49A A91G | condition met
U7G G17A G39A U55A C82G C115A U130C | condition met
G48A G63U C101A | condition met
C12U C70U G71A | condition met
G44A G63A | condition met
G60A G117C | condition met
A46C C70U C101U | condition met
A6U C53G C99U | condition not met
C11U U32A A46C G48A C72G U112G | condition not met
U14A A50C U125G | condition not met
U9C A27G C56A U92A | condition not met
A5U C22A | condition not met
C53U C102U C114A | condition not met

Sourced from the RNAGym collection of RNA variant scans (doi:10.1073/pnas.2313332121)
